- Tested on: Plasmodium falciparum
- MEASUREMENT NOTES: Primary screen in NF54 nanoGlo assay, in single point, at 2uM, 72h
- Type: functional, Erythrocyte
- ASSAY CONTEXT: timepoint 72 hour
Screen size: about 150,000 compounds; about 540 (0.36%) showed an effect of 50% or more. The sample holds strong results, similar compounds and a random draw of the others, so the mix is not that of the screen.
READOUT: % Inhibition

1. Cc1cc(-c2cc(O)cc(CC[C@H]3CCCCN3)c2)ccn1; 84%

Please report the recorded % Inhibition for Cc1nc(-n2cnnc2)ccc1-c1cc(O)cc(CC[C@H]2CCCCN2)c1 .
-7%

Try Cn1c(=O)c2c(-c3ccc(Br)cc3)n(-c3cccc4cccnc34)cc2n(C)c1=O next.
-4%

====

- Tested on: Plasmodium falciparum
- MEASUREMENT NOTES: Primary screen in NF54 nanoGlo assay, in single point, at 2uM, 72h
- Assay type: functional, Erythrocyte
- ASSAY CONTEXT: timepoint 72 hour
Hit rate of the full screen: of about 150,000 compounds, about 540 (0.36%) showed an effect of 50% or more. The entries come from a sample that favours strong results as a whole.
Classification field. Basis: Z score. Definitions: low range = under 0.5, mid range = from 0.5 up to 1, high range = 1 and over

Solved entries (count: 2):
1. c1ccc(C2(c3ccccc3)O[C@@H](c3cccnc3)Nc3ccccc32)cc1; mid range
2. CC[C@@H](c1ccccn1)n1cc(-c2cc(CN(C)C)cs2)nn1; mid range

Which class holds c1ccc(-c2nnc(-c3cccnc3NCc3cccs3)o2)cc1 ?
mid range

Try CNC(=O)c1[nH]nc2c1CN(CC(=O)Nc1cccc(C)c1C)CC2 next.
mid range

Try COc1ccc(C2=C[C@@H](c3cccc(OC)c3)n3ncc(C(=O)Nc4ccccc4)c3N2)cc1 next.
low range

Try CCCC1CCC(c2ccc(OC(=O)c3cccc(C(=O)OC)n3)cc2)CC1 (stereo unspecified) next.
high range

Try CC(=O)N[C@H]1C[C@@H](c2cc(NCCCc3cccnc3)nc(C)n2)C1 next.
high range

====

- System: Plasmodium falciparum
- MEASUREMENT NOTES: Primary screen in NF54 nanoGlo assay, in single point, at 2uM, 72h
- Format: functional, Erythrocyte
- ASSAY CONTEXT: timepoint 72 hour
The whole screen tested about 150,000 compounds, of which about 540 (0.36%) showed an effect of 50% or more. For the sample, strong results were picked, then their nearest neighbours and some compounds at random.
The entries below are paired with their reported % Inhibition.
Give the value in % but do not write % after it.

1) CS(=O)(=O)CCc1ccc(N[C@H]2CCc3ccc(F)cc32)cc1; -8
2) Cn1ncc2c1CCC[C@@H]2NCCc1ccccc1O; -5
3) CO[C@H]1CCOC[C@@H]1NC1CCN(c2ncc3ccc(F)cc3n2)CC1; 1
4) CCN(C(=O)c1nn(C)c2ccc(C)cc12)[C@H]1COC[C@@H]1O; 5
5) CCOc1cccc(CN2CCC(C)(c3noc(C4CCOCC4)n3)CC2)c1; -13

Next molecule, % Inhibition to be filled in.
Please report the recorded % Inhibition for Oc1cccc(CN2CCC3(CC2)C[C@H](c2ccccc2)CN(C2CC2)C3)c1 .
76

====

- Test system: Plasmodium falciparum
- MEASUREMENT NOTES: Primary screen in NF54 nanoGlo assay, in single point, at 2uM, 72h; a lower Z score goes with more inhibition
- Assay type: functional, Erythrocyte
- ASSAY CONTEXT: timepoint 72 hour
The campaign covered roughly 150,000 compounds. About 540 (0.36%) showed an effect of 50% or more. The full list was thinned out, with strong results kept by preference.
READOUT: Z score
// no unit, no text: just the number

1) Cc1cc(NC(=O)COc2ccccc2)nn1-c1ccc(Cl)cc1; 0.32
2) CCC(C(=O)Nc1ccc2c(c1)CN(CCc1ccccc1)C(=O)C(C)O2)c1ccccc1 (stereo not given); 0.66
3) CCc1cc(NC(=O)Cc2ccc(OC)cc2)nn1-c1ccc(OC)cc1; 0.3

Please report the recorded Z score for CCOC(=O)N1CC[C@H](NC2(c3cc(F)ccc3F)CC2)C1 .
1.36

Try COCC(=O)N[C@H]1CO[C@H]2[C@@H]1OC[C@@H]2Nc1nccc(-c2ccc(OC)cc2)n1 next.
0.87

Try O=C(Nc1cccc(CNc2ncccn2)c1)c1ccco1 next.
0.39

Try CCC(C(=O)Nc1ccc2c(c1)CN(CCc1ccc(OC)c(OC)c1)C(=O)C(C)O2)c1ccccc1 (stereo not given) next.
-17.08

Try Cc1ccc(S(=O)(=O)c2c(N)n(-c3ccc4c(c3)OCCO4)c3nc4ccccc4nc23)cc1 next.
-0.5

Try N#Cc1cccc(-c2ccnc(N[C@H]3CO[C@H]4[C@@H]3OC[C@@H]4NC(=O)c3ccc(C(F)(F)F)cc3)n2)c1 next.
1.07

Try CC[C@H]1CN(Cc2cccn2-c2nccs2)CCN1C next.
0.41

// data source = ChEMBL document CHEMBL4888484
